Would you mind telling me the reported Minimum neurotoxic dose of each entry?
tested on: Mus musculus; test: Neurotoxicity in ip dosed mouse after 0.5 hrs by rotarod test; format: toxicity, organism-based; details: in vivo
Write it as a number; the unit mg/kg goes unstated.

Prompt: Endpoint output: Minimum neurotoxic dose of O=C1CC2(CCCC2)C(=O)N1Nc1ccc(Cl)cc1Cl . Value?
Response: 300

Prompt: If you can, please state the reported Minimum neurotoxic dose value of CC1CCC2(CC1)CC(=O)N(Nc1ccc(Cl)cc1Cl)C2=O (stereo not given) .
Response: 100

Prompt: # get_value(readout='Minimum neurotoxic dose', item= O=C1CC2(CCCC2)C(=O)N1Nc1ccc(Br)cc1 )
Response: 100

Prompt: So what does the record say about Minimum neurotoxic dose for O=C1CC2(CCCCC2)C(=O)N1Nc1ccc(Br)cc1 ?
Response: 30

Prompt: # query: Minimum neurotoxic dose of entry CC1CCCCC12CC(=O)N(Nc1ccccc1Cl)C2=O (stereo not given)
Response: 100
